- TARGET OR TEST SYSTEM: Bile acid receptor (Homo sapiens) (UniProt Q96RI1)
- Sequence (Q96RI1 whole entry, looked up): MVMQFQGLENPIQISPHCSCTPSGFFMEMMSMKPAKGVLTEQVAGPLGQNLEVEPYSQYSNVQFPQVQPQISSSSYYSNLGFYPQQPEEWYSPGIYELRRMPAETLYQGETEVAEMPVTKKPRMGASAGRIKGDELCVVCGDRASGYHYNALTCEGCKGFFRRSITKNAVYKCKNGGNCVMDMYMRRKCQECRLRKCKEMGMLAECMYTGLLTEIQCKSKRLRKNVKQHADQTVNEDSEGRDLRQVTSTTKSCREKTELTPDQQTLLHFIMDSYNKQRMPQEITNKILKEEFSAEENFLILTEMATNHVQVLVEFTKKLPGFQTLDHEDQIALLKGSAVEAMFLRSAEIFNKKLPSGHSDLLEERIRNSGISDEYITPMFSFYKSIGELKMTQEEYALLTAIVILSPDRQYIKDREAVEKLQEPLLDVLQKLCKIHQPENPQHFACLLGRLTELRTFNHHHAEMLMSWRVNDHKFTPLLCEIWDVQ
- ASSAY REMARKS: ATG_IR1_CIS: Attagene CIS-FACTORIAL HepG2 Assay for human Nuclear Receptor Subfamily 1 Group H Member 4 (NR1H4), IR1 submotif (AID 2282946)
- SETTINGS: IR1 reporter transcription, actives raise or lower the signal
Activity calls are given as the source filed them. How the source made its calls: active means hit-call score of the fitted dose curve at least 0.9, where 1 is the maximum; inactive means score below 0.9.
Labels: active, inactive

{"columns": ["MOLECULE", "GROUP"],
 "data": [
  ["CCOC(=O)c1ccc(O)cc1", "inactive"],
  ["O=C(c1ccc(O)cc1O)c1ccc(O)cc1O", "inactive"],
  ["O=C(O)C1(C(=O)Nc2ccc(Cl)cc2Cl)CC1", "inactive"],
  ["CCOC(=O)C(C)Oc1ccc(Oc2cnc3cc(Cl)ccc3n2)cc1 (centres undefined)", "inactive"],
  ["COC(=O)c1ccc(CNS(C)(=O)=O)cc1S(=O)(=O)NC(=O)Nc1nc(OC)cc(OC)n1", "inactive"],
  ["CC(C)(C)[C@@H](O)[C@@H](Cc1ccc(Cl)cc1)n1cncn1", "active"],
  ["C[C@]12CC[C@@H]3c4ccc(O)cc4C[C@@H](CCCCCCCCCS(=O)CCCC(F)(F)C(F)(F)F)[C@H]3[C@@H]1CC[C@@H]2O (some centres undefined)", "inactive"],
  ["COC(=O)c1c(Cl)nn(C)c1S(=O)(=O)NC(=O)Nc1nc(OC)cc(OC)n1", "inactive"],
  ["Oc1ccc(C(c2ccc(O)cc2)C(Cl)(Cl)Cl)cc1", "inactive"],
  ["CCN(CC)C(=O)c1cccc(C)c1", "inactive"],
  ["Cc1nn(C)c(Oc2ccccc2)c1C=NOCc1ccc(C(=O)OC(C)(C)C)cc1", "inactive"],
  ["CCCOC(=O)c1ccc(C(=O)OCCC)nc1", "inactive"],
  ["c1ccc2[nH]c(-c3cscn3)nc2c1", "inactive"],
  ["C#CCOC(=O)[C@@H](C)Oc1ccc(Oc2ncc(Cl)cc2F)cc1", "inactive"],
  ["O=C(Nc1ccc([N+](=O)[O-])cc1Cl)c1cc(Cl)ccc1O", "inactive"],
  ["CCOC(=O)C(C)Oc1ccc(Oc2nc3ccc(Cl)cc3o2)cc1 (centres undefined)", "inactive"],
  ["COC(=O)c1cccc(C)c1S(=O)(=O)NC(=O)Nc1nc(OCC(F)(F)F)nc(N(C)C)n1", "inactive"],
  ["C[C@]12C[C@H](O)[C@H]3[C@@H](CCC4=CC(=O)CC[C@@]43C)[C@@H]1CC[C@@H]2C(=O)CO", "inactive"],
  ["CCC(O)=C1C(=O)CC(C(=O)O)CC1=O (centres undefined)", "inactive"]
]}
